Each recorded value in this set is attributed to patent US8501786B2.

# TARGET UNDER TEST: human β3 adrenergic receptor (Homo sapiens, UniProt P13945)
# Construct: stably transfected with the cloned β-adrenergic receptor (β1, β2 or β3); expressed in transfected cells; host or cells: Chinese hamster ovary (CHO) cells, stably transfected
# Sequence (P13945 whole entry): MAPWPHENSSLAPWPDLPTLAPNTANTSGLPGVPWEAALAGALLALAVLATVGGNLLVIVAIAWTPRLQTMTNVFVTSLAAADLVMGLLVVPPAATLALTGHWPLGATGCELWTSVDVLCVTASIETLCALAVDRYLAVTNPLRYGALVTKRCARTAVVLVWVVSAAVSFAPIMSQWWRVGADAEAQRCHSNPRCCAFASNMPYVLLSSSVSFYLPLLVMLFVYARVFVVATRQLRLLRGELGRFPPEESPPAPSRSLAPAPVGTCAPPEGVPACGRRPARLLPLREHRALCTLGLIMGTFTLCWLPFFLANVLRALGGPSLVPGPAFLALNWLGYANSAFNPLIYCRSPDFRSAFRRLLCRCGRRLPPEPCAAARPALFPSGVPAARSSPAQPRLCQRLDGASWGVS
# PROTOCOL TEXT: Functional assay: cAMP production (LANCE TR-FRET) in CHO cells stably transfected with cloned β3 adrenergic receptor
# Format: cell-based
# RUN CONDITIONS: Table 3; cAMP production, CHO cells expressing human β3 AR; read-out: Human β3 functional
pEC50: −log10 of the molar value.
ENDPOINT: pEC50

Solved entries:
COMPOUND	pEC50
O=C(Nc1ccc(CC2CC[C@H]([C@H](O)c3cccnc3)N2)cc1)C1CCc2sc(F)nc21 (single isomer, unassigned) [Example 156]	8.00 to 9.00
CC(C)c1nc2c(s1)CCC2C(=O)Nc1ccc(CC2CC[C@H]([C@H](O)c3cccnc3)N2)cc1 (single isomer, unassigned) [Example 124]	7.00 to 7.96

Data point: CCC(C(=O)Nc1ccc(CC2CC[C@H]([C@H](O)c3cccnc3)N2)cc1)c1cscn1 (single isomer, unassigned) [Example 205] ; pEC50 = 7.00 to 7.96

* * *

# TARGET UNDER TEST: human β3 adrenergic receptor (Homo sapiens)
# Construct: stably transfected with the cloned β-adrenergic receptor (β1, β2 or β3); expressed in transfected cells; host or cells: Chinese hamster ovary (CHO) cells, stably transfected
# PROTOCOL TEXT: Functional assay: cAMP production (LANCE TR-FRET) in CHO cells stably transfected with cloned β3 adrenergic receptor
# Format: cell-based
# RUN CONDITIONS: Table 3; cAMP production, CHO cells expressing human β3 AR; read-out: Human β3 functional
pEC50: −log10 of the molar value.
pEC50 reference

Solved entries:
COMPOUND	TARGET UNDER TEST	pEC50
Cc1noc2c1CCC2C(=O)Nc1ccc(CC2CC[C@H]([C@H](O)c3cccnc3)N2)cc1 (single isomer, unassigned) [Example 168]	human β3 adrenergic receptor (Homo sapiens)	8.00 to 9.00
CC(C(=O)Nc1ccc(CC2CC[C@H]([C@H](O)c3cccnc3)N2)cc1)c1ccn[nH]1 (single isomer, unassigned) [Example 179]	human β3 adrenergic receptor (Homo sapiens)	7.00 to 7.96
CC(C)c1nc2c(s1)CCC2C(=O)Nc1ccc(CC2CC[C@H]([C@H](O)c3cccnc3)N2)cc1 (single isomer, unassigned) [Example 123]	human β3 adrenergic receptor (Homo sapiens)	6.00 to 7.00

Data point: Cc1nc2c(s1)CCCC2C(=O)Nc1ccc(CC2CC[C@H]([C@H](O)c3cccnc3)N2)cc1 (single isomer, unassigned) [Example 133] ; pEC50 = 7.00 to 7.96

Data point: Cc1nc2c(s1)CCC2C(=O)Nc1ccc(CC2CC[C@H]([C@H](O)c3cccnc3)N2)cc1 (single isomer, unassigned) [Example 115] ; pEC50 = 8.00 to 9.00

Data point: Cc1cn(C(C)C(=O)Nc2ccc(CC3CC[C@H]([C@H](O)c4cccnc4)N3)cc2)nn1 (single isomer, unassigned) [Example 210] ; pEC50 = 7.00 to 7.96

* * *

# TARGET UNDER TEST: human β3 adrenergic receptor (Homo sapiens)
# Construct: stably transfected with the cloned β-adrenergic receptor (β1, β2 or β3); expressed in transfected cells; host or cells: Chinese hamster ovary (CHO) cells, stably transfected
# PROTOCOL TEXT: Functional assay: cAMP production (LANCE TR-FRET) in CHO cells stably transfected with cloned β3 adrenergic receptor
# Type: cell-based
# RUN CONDITIONS: Table 2; cAMP production, CHO cells expressing human β3 AR; read-out: Human β3 functional
ENDPOINT: EC50

COMPOUND	EC50
O=C(Cn1c(-c2ccccc2)nc2ccccc21)Nc1ccc(CC2CC[C@H]([C@H](O)c3cccnc3)N2)cc1 (stereo partly shown) [Example 18]	0.011 to 0.1 µM
O=C(Cc1c[nH]c2ccccc12)Nc1ccc(CC2CC[C@H]([C@H](O)c3cccnc3)N2)cc1 (stereo partly shown) [Example 19]	0.001 to 0.01 µM
O=C(Nc1ccc(CC2CC[C@H]([C@H](O)c3cccnc3)N2)cc1)c1ccccc1-n1nccn1 (stereo partly shown) [Example 35]	0.011 to 0.1 µM

Data point: Cc1nc(CC(=O)Nc2ccc(CC3CC[C@H]([C@H](O)c4cccnc4)N3)cc2)cs1 (stereo partly shown) [Example 15] ; EC50 = 0.011 to 0.1 µM

Data point: O=C(CC1NC(=S)N(c2ccccc2)C1=O)Nc1ccc(CC2CC[C@H]([C@H](O)c3cccnc3)N2)cc1 (stereo partly shown) [Example 72] ; EC50 = 0.011 to 0.1 µM

Data point: O=C(Cc1n[nH]c(=O)[nH]1)Nc1ccc(CC2CC[C@H]([C@H](O)c3cccnc3)N2)cc1 (stereo partly shown) [Example 73] ; EC50 = 0.011 to 0.1 µM

Data point: Cc1nnc(CC(=O)Nc2ccc(CC3CC[C@H]([C@H](O)c4cccnc4)N3)cc2)[nH]1 (stereo partly shown) [Example 23] ; EC50 = 0.101 to 1 µM
